- system-tested: Voltage-dependent T-type calcium channel subunit alpha-1G (Homo sapiens, UniProt O43497)
- Sequence (O43497 whole entry): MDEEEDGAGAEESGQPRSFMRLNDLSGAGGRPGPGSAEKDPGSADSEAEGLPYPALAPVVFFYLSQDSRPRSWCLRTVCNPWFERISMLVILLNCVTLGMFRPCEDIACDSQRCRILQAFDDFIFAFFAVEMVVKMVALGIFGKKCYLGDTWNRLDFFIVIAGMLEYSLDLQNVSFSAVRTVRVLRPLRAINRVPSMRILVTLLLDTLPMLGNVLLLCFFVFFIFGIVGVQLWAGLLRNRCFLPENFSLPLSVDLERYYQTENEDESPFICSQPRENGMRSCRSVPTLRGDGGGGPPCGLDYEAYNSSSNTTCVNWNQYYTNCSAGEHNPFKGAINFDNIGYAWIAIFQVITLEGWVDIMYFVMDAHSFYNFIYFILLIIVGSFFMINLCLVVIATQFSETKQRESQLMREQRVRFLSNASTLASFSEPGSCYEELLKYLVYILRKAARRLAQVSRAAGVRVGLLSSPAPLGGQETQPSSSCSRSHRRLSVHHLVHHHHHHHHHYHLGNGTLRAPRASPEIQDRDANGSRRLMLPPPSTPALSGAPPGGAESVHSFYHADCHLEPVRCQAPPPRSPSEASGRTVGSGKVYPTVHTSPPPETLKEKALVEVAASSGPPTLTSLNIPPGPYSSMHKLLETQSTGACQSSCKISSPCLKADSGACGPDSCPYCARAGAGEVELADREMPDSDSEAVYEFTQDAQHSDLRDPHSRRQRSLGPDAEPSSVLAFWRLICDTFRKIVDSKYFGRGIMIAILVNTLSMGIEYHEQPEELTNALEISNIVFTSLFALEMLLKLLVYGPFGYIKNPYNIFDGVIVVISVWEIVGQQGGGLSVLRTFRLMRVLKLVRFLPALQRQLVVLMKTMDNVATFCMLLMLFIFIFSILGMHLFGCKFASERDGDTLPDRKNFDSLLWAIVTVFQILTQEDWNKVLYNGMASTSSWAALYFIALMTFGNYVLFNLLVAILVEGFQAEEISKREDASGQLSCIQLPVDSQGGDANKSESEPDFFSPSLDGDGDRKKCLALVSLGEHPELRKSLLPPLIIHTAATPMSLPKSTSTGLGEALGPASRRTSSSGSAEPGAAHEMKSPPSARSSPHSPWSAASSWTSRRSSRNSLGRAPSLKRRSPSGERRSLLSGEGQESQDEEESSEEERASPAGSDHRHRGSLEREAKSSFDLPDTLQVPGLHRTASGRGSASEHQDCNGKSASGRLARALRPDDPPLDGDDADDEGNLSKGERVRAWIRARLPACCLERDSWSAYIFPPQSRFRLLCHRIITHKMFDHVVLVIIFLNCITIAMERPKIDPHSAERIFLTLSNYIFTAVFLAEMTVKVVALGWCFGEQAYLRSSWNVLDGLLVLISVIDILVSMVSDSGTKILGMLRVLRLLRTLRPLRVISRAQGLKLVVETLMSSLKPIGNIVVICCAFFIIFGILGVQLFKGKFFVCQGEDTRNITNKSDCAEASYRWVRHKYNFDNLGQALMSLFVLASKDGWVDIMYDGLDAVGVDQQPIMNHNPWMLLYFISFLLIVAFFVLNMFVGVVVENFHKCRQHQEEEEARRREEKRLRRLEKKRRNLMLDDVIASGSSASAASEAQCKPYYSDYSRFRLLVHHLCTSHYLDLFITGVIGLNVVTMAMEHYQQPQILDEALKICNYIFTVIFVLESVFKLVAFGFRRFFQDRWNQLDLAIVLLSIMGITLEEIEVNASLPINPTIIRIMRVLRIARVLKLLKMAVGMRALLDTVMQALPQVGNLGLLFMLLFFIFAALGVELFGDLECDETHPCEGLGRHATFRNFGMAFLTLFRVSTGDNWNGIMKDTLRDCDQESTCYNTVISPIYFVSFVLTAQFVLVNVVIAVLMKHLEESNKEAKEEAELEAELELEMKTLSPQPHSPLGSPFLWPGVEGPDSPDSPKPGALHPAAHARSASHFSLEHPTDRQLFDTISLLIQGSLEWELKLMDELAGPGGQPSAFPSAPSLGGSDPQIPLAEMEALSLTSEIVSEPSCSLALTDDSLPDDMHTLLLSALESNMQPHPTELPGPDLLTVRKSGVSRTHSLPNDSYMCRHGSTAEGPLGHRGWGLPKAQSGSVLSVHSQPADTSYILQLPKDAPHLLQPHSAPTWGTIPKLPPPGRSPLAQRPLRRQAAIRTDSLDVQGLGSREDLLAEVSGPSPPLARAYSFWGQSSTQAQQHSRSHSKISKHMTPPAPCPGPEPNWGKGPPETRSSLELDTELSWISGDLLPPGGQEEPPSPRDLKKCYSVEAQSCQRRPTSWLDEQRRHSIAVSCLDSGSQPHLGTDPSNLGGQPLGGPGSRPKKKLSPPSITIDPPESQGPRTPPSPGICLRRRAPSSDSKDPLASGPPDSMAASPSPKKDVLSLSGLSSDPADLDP
- assay-explanation: Inhibition of T-type calcium channel alpha1G expressed in human HEK293 cells assessed as KCl-induced depolarization at 10 uM after 60 mins by FDSS6000 assay
- Assay type: cell-based
Kindly return True if reported inhibition is no lower than 20%; return False if it is lower.

Solved entries (count: 3):
- smiles-text: "N#CC1(CNC(=O)c2cc(Cl)cc(Cl)c2)CCN(Cc2ccc(C(F)(F)F)cc2)CC1"
  label-class: "False"
- smiles-text: "COC(=O)C1(CNC(=O)c2cc(OC)cc(OC)c2)CCN(CCc2ccccc2)CC1"
  label-class: "True"
- smiles-text: "CC(C)Cc1cc(C(=O)NCC2(C#N)CCN(Cc3ccc(C(F)(F)F)cc3)CC2)nn1-c1ccccc1"
  label-class: "False"

Enquiry: # bool: inhibition of "CC(C)Cc1cc(C(=O)NCC2(C#N)CCN(Cc3cccc(C(F)(F)F)c3)CC2)nn1-c1ccccc1" >= 20%
Return: False

Enquiry: # bool: inhibition of "COc1ccc(CN2CCC(C#N)(CNC(=O)c3cc(CC(C)C)n(-c4ccccc4)n3)CC2)cc1" >= 20%
Return: True

Enquiry: # bool: inhibition of "COc1cc(OC)cc(C(=O)NCC2(C#N)CCN(Cc3cccc(C(F)(F)F)c3)CC2)c1" >= 20%
Return: False

Enquiry: # bool: inhibition of "COc1cc(OC)cc(C(=O)NCC2(C#N)CCN(Cc3ccccc3C(F)(F)F)CC2)c1" >= 20%
Return: True

Enquiry: # bool: inhibition of "COC(=O)C1(CNC(=O)c2cc(Cl)cc(Cl)c2)CCN(Cc2ccccc2C(F)(F)F)CC1" >= 20%
Return: True

Enquiry: # bool: inhibition of "COC(=O)C1(CNC(=O)c2cc(Cl)cc(Cl)c2)CCN(Cc2cccc(C(F)(F)F)c2)CC1" >= 20%
Return: True

----------
- system-tested: Voltage-dependent T-type calcium channel subunit alpha-1G (Homo sapiens, UniProt O43497)
- assay-explanation: Inhibition of T-type calcium channel alpha1G expressed in human HEK293 cells assessed as KCl-induced depolarization at 10 uM after 60 mins by FDSS6000 assay
- Assay type: cell-based
Kindly return fulfilled if reported inhibition is no lower than 60%; return not fulfilled if it is lower.

- smiles-text: "CC(C)Cc1cc(C(=O)NCC2(C#N)CCN(Cc3ccccc3C(F)(F)F)CC2)nn1-c1ccccc1"
  label-class: "not fulfilled"
- smiles-text: "CC(C)Cc1cc(C(=O)NCC2(C#N)CCN(CC3=Cc4ccccc4OC3(C)C)CC2)nn1-c1ccccc1"
  label-class: "not fulfilled"
- smiles-text: "N#CC1(CNC(=O)c2cc(Cl)cc(Cl)c2)CCN(Cc2cccc(C(F)(F)F)c2)CC1"
  label-class: "not fulfilled"
- smiles-text: "COC(=O)C1(CNC(=O)c2cc(OC)cc(OC)c2)CCN(Cc2ccccc2C(F)(F)F)CC1"
  label-class: "fulfilled"
- smiles-text: "COC(=O)C1(CNC(=O)c2cc(OC)cc(OC)c2)CCN(Cc2cccc(C(F)(F)F)c2)CC1"
  label-class: "fulfilled"
- smiles-text: "COC(=O)C1(CNC(=O)c2cc(Cl)cc(Cl)c2)CCN(CC2=Cc3ccccc3OC2(C)C)CC1"
  label-class: "not fulfilled"

Enquiry: # bool: inhibition of "N#CC1(CNC(=O)c2cc(Cl)cc(Cl)c2)CCN(Cc2ccccc2C(F)(F)F)CC1" >= 60%
Return: not fulfilled

Enquiry: # bool: inhibition of "COC(=O)C1(CNC(=O)c2cc(OC)cc(OC)c2)CCN(Cc2cccc(OC)c2)CC1" >= 60%
Return: not fulfilled
